TARGET ENTITY: T1, Desmoglein 2 (DSG2) on cells (human, UniProt Q14126 50-1118)
T1 construct: whole, on cells; also called HeLa cells, which express DSG2; DSG2 on polarized T84 cells
T1 sequence (looked up): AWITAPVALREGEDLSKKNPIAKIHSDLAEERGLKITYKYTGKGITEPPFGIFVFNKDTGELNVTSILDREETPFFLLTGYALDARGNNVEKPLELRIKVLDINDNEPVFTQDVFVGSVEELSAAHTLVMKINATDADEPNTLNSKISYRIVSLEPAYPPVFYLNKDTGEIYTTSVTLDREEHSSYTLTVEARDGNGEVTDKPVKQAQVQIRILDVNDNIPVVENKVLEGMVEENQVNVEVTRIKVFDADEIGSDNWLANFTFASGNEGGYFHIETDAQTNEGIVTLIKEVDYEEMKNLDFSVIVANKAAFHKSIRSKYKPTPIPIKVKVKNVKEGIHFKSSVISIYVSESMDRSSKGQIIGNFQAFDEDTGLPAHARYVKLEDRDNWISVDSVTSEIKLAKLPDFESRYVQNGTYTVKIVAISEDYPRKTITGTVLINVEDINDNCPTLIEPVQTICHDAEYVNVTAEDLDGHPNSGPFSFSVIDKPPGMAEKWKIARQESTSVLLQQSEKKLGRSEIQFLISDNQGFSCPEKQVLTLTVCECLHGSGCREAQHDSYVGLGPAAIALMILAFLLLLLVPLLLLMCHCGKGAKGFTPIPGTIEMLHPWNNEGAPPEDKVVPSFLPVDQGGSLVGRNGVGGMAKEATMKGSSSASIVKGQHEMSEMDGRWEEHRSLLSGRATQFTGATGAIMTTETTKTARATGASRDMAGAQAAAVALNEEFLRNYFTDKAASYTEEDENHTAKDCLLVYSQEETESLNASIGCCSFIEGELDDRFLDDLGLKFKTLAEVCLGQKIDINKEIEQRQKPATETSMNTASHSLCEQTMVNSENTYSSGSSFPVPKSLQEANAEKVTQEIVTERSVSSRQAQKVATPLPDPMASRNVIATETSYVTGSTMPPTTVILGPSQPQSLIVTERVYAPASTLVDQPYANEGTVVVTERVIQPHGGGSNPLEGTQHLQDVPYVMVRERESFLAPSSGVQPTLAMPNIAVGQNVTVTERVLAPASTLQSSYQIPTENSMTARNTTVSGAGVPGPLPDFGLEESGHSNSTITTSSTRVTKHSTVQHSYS
MEASUREMENT PROTOCOL: competition: attachment of 3H-labelled Ad3 virus (competitor) to HeLa cells after pre-incubation with dimeric knob; scintillation counting
VALUE KIND: Inhibition of attachment in the presence of dimeric knob (JO-1 = 100%)

Retrieve Inhibition of attachment in the presence of dimeric knob (JO-1 = 100%) measured for dimeric Ad3 fiber knob mutant E299V (ligand, JO-1 format) MKVSALKEKVSALKEKVSALKEKVSALKEKVSALKEGSGGGSGGGSGGGSNSIALKNNTLWTGPKPEANCIIEYGKQNPDSKLTLILVKNGGIVNGYVTLMGASDYVNTLFKNKNVSINVELYFDATGHILPDSSSLKTDLELKYKQTADFSARGFMPSTTAYPFVLPNAGTHNENYIFGQCYYKASDGALFPLEVTVMLNKRLPDSRTSYVMTFLWSLNAGLAPVTTQATLITSPFTFSYIREDD and print it.
97.3 % (JO-1 = 100%)
